# measured.target: EPHB1 (UniProt P54762)
# Sequence (P54762 whole entry, looked up): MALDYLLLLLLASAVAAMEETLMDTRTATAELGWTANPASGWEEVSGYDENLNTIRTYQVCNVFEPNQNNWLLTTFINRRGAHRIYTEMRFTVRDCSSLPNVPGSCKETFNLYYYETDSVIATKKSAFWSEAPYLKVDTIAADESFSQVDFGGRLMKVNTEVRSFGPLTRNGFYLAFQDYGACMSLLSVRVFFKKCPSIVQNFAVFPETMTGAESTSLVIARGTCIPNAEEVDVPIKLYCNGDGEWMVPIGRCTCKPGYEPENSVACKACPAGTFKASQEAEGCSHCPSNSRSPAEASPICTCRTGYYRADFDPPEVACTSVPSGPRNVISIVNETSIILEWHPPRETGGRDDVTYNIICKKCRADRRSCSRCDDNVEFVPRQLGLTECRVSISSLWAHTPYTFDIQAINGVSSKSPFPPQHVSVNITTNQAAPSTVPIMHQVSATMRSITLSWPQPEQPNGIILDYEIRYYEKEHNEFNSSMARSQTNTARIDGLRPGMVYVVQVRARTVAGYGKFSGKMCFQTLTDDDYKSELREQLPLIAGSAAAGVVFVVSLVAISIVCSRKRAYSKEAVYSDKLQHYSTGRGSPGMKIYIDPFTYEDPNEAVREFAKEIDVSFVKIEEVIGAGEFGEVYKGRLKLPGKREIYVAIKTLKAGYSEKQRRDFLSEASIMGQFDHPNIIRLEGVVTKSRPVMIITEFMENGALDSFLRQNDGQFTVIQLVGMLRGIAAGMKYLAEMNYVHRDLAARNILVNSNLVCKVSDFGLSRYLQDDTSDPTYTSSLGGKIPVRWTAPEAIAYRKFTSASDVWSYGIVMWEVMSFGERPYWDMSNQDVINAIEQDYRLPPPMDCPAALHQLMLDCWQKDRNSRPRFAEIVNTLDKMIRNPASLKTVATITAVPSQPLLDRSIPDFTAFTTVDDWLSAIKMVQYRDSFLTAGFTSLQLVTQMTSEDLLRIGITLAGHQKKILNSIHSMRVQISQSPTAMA
# assay.explanation: phosphorylation enrichment, bacterial display (enrichment ratio); higher = better substrate or ligand; peptides without Tyr show the background;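 also: 11-residue human phosphosite peptides and single-mutation variants displayed on the E. coli surface, counted by deep sequencing, each peptide's frequency after selection divided by its frequency in the unselected input library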;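 also: frequency after pTyr selection over input frequency; kinase dosed for 20-30% of maximal phosphorylation in three min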
Assign Y whenever phosphorylation enrichment does not fall below 0.6; assign N whenever it does.

Challenge: hey, is phosphorylation enrichment for this one >= 0.6? QKNVSYVSTVS [TASOR_Y1043]
Response given: N

Challenge: Here is the next sequence: EQKKFYNAMKK [SCN5A_Y1495_YF]
Response given: N

Challenge: Here is the next sequence: NKVFTYIFIME [SCN4A_Y1074_D1069N]
Response given: Y

Challenge: Here is the next sequence: DFLSSYSAVKQ [OAT_Y85_N89K]
Response given: N

Challenge: Here is the next sequence: KDHLDYKYQPR [SOX9_Y172_P170L]
Response given: N

Challenge: Here is the next sequence: MGSFNYLGFAW [SPTLC2_Y178_R183W_YF]
Response given: Y

Challenge: Here is the next sequence: CPYNLYAEQFS [HGD_Y40_L44F]
Response given: Y

Challenge: Here is the next sequence: GIVEDYRPPLY [ACVRL1_Y421_F425L]
Response given: N

Challenge: Here is the next sequence: VIKDKYPKARY [APTX_Y209]
Response given: N

Challenge: Here is the next sequence: CSEEMYRLMLQ [RET_Y981]
Response given: Y

Challenge: Here is the next sequence: VHNLDYFKETT [FGFR3_Y647_K650E_YF]
Response given: N

Challenge: Here is the next sequence: RRIHCYRGHLW [VHL_Y112_S111C]
Response given: N

Challenge: Here is the next sequence: LSSLAYSGKDA [FXN_Y205]
Response given: Y

Challenge: Here is the next sequence: YLNSSYINIST [IL23R_Y178_T175N]
Response given: N

Challenge: Here is the next sequence: RRIHSYRGRLW [VHL_Y112_H115R]
Response given: Y

Challenge: Here is the next sequence: IIQRAYRGHLL [SCN1A_Y1926_R1928G]
Response given: N

Challenge: Here is the next sequence: LMVFEYMRHGD [NTRK1_Y591]
Response given: Y

Challenge: Here is the next sequence: EGELRYMHSRV [ABCD1_Y281_K276E]
Response given: N

Challenge: Here is the next sequence: CKRQFYLFKGK [RSPO4_Y112_YF]
Response given: N

Challenge: Here is the next sequence: VMIFAYLLHRG [PTEN_Y138_C136Y_YF]
Response given: N

Challenge: Here is the next sequence: QLPRGYISIPV [BAG3_Y205]
Response given: Y

Challenge: Here is the next sequence: GANSEYIIAEK [ECHS1_Y35_F33S]
Response given: Y

Challenge: Here is the next sequence: KYLENYLNRLL [PLD2_Y169]
Response given: N

Challenge: Here is the next sequence: FFDANYDGKEF [MAPRE2_Y162_YF]
Response given: N

Challenge: Here is the next sequence: FGRTFYNQANM [MCCC2_Y196_I200N]
Response given: Y

Challenge: Here is the next sequence: RGGWAYVLHPT [TRMT61A_Y67_V66A]
Response given: Y

Challenge: Here is the next sequence: YQRITYHNWRH [PDE6B_Y556_R552Q]
Response given: N

Challenge: Here is the next sequence: PKGIGYGQGAG [CSRP3_Y73]
Response given: N

Challenge: Here is the next sequence: TINPIYEHVGY [CHN1_Y143]
Response given: Y

Challenge: Here is the next sequence: EFGSGYPNDPK [RNASEH2A_Y210_D205E_YF]
Response given: N

Challenge: Here is the next sequence: IGEGTYGVVYK [CDK2_Y15]
Response given: Y

Challenge: Here is the next sequence: LSCLAYSGKDA [FXN_Y205_S202C]
Response given: Y

Challenge: Here is the next sequence: IHKEFYDGLFP [BCR_Y561]
Response given: Y

Challenge: Here is the next sequence: RPDSPYSRLHD [DOK2_Y271_P274L]
Response given: N

Challenge: Here is the next sequence: IHTDAYVRAMT [RPE65_Y89_R85H]
Response given: N

Challenge: Here is the next sequence: PELIDYGKLWK [ACTN1_Y193_R197W]
Response given: Y

Challenge: Here is the next sequence: LERYIYNRQEF [HLA-DPB1_Y59_E62Q]
Response given: N

Challenge: Here is the next sequence: DRLASYLDKLR [KRT12_Y139_V143L]
Response given: N

Challenge: Here is the next sequence: RSGNCYLDIRP [FBN1_Y1535]
Response given: N

Challenge: Here is the next sequence: LLREWYLPDPF [SIX3_Y225_Q227P_YF]
Response given: Y

Challenge: Here is the next sequence: DIDKIYVRTGI [PIK3CA_Y355]
Response given: Y

Challenge: Here is the next sequence: AAVDTVCRHNY [HLA-DRB1_Y107_Y107V]
Response given: N

Challenge: Here is the next sequence: TCFDKYTGNTF [FN1_Y101_YF]
Response given: Y

Challenge: Here is the next sequence: SSMNDYNPLEK [MYOC_Y479_I477N]
Response given: N

Challenge: Here is the next sequence: FRVAGYKTQGG [TIA1_Y383_E384K_YF]
Response given: N

Challenge: Here is the next sequence: LEQDEYALHSH [HADHB_Y244_R247H]
Response given: Y

Challenge: Here is the next sequence: PGDGEYFTLQI [TP53_Y327_L323G]
Response given: Y

Challenge: Here is the next sequence: VTAALYGRLYE [BTD_Y536]
Response given: Y

Challenge: Here is the next sequence: KMKGDYYRYLA [YWHAG_Y130]
Response given: Y

Challenge: Here is the next sequence: LREKVYVSLEA [RXRA_Y397_A398V]
Response given: N

Challenge: Here is the next sequence: FKRAVYCIIGR [NUP93_Y391_YF]
Response given: N
